# ASSAY: Hematology assays in cynomolgus monkeys (Example 46)
# Format: in vivo
# PARTICULARS: Day 17
Strand notation (5' to 3'): a small letter for the sugar, then the base; units joined by * are phosphorothioate-linked, units joined directly phosphodiester-linked; [ ] holds rarer units or linkages, { } end groups; capitals alone tell only the bases. e = 2'-O-(2-methoxyethyl) (MOE); [5mC] = 5-methylcytosine; d = 2'-deoxy (DNA)

{"columns": ["SUBSTANCE", "MCH, pg"],
 "data": [
  ["ISIS 449710: 3-8-3, 4-8-4, 2-10-2, 3-10-3 or 4-10-4 MOE microwalk gapmer (Table 46) (antisense e[5mC]*eA*e[5mC]*dA*dG*dT*dT*dT*d[5mC]*dT*dG*dG*d[5mC]*eA*eG*eG)", 23.1],
  ["ISIS 416850: MOE gapmer, nucleobases 1275 to 1318 of SEQ ID NO: 1 (Table 8) (antisense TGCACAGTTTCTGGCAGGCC; MOE gapmer, wing and gap sizes not given here)", 23.7]
]}
